tissue uptake at 16 h overview
assay: Tumor targeting efficacy: drug distribution between tumor and healthy tissues in xenograft mice (LC/MS); format: in vivo; details: female, athymic nude, mouse, iv; tumor tissue; 10 mg/kg/day i.v.; organs collected 16 hours after administration
measurement.type: tissue uptake at 16 h (%ID/g)

>>> observed_result("COc1cccc2c1C(=O)c1c(O)c3c(c(O)c1C2=O)C[C@@](O)(C(=O)CO)C[C@@H]3O[C@H]1C[C@H](N)[C@H](O)[C@H](C)O1 [Free drug doxorubicin, doxorubicin]")
1.5
>>> observed_result("CC(=O)O[C@H]1C(=O)[C@@]2(C)[C@H]([C@H](OC(=O)c3ccccc3)[C@]3(O)C[C@H](OC(=O)[C@H](O)[C@@H](NC(=O)c4ccccc4)c4ccccc4)C(C)=C1C3(C)C)[C@]1(OC(C)=O)CO[C@@H]1C[C@@H]2O [Free drug paclitaxel, paclitaxel]")
0.52
>>> observed_result("Nc1ccn([C@@H]2O[C@H](CO)[C@@H](O)C2(F)F)c(=O)n1 [Free drug gemcitabine, gemcitabine]")
2.4
